Ref: paper PMC11496704

test system: Caco-2; test: Cytotoxicity primary screen (single dose); assay type: cell-based; conditions: single dose 25 μM, 48 h exposure, mean of triplicates
OUTCOME MEASURE: percentage of cell survival over DMSO control, CaCo-2 (%)
Report the figure in % without appending any unit label.

Query: Read the entry Fc1cc(Cl)cc(Nc2ncc3ccc4ccccc4c3n2)c1 and write its reported percentage of cell survival over DMSO control, CaCo-2.
Result: 54

Query: Read the entry COc1cccc(Nc2ncc3ccc4ccccc4c3n2)c1 and write its reported percentage of cell survival over DMSO control, CaCo-2.
Result: 59

Query: Read the entry Fc1cccc(Nc2ncc3ccc4ccccc4c3n2)c1 and write its reported percentage of cell survival over DMSO control, CaCo-2.
Result: 34

Query: Read the entry Fc1ccc(Nc2ncc3ccc4ccccc4c3n2)cc1 and write its reported percentage of cell survival over DMSO control, CaCo-2.
Result: 77

Query: Read the entry Fc1ccc(Nc2ncc3ccc4ccccc4c3n2)cc1F and write its reported percentage of cell survival over DMSO control, CaCo-2.
Result: 72

Query: Read the entry Fc1cc(Nc2ncc3ccc4ccccc4c3n2)cc(F)c1F and write its reported percentage of cell survival over DMSO control, CaCo-2.
Result: 65

Query: Read the entry Clc1cccc(Nc2ncc3ccc4ccccc4c3n2)c1 and write its reported percentage of cell survival over DMSO control, CaCo-2.
Result: 38

Query: Read the entry Brc1cc(Br)cc(Nc2ncc3ccc4ccccc4c3n2)c1 and write its reported percentage of cell survival over DMSO control, CaCo-2.
Result: 46

Query: Read the entry Cc1ccc(Nc2ncc3ccc4ccccc4c3n2)cc1 [Compound 4d, N-(p-tolyl)benzo[h]quinazolin-2-amine] and write its reported percentage of cell survival over DMSO control, CaCo-2.
Result: 63

Query: Read the entry Clc1cc(Br)cc(Nc2ncc3ccc4ccccc4c3n2)c1 and write its reported percentage of cell survival over DMSO control, CaCo-2.
Result: 35

----------
test system: HCT116; assay: Cytotoxicity primary screen (single dose); type: cell-based; settings: Homo sapiens, HCT-116; single dose 25 μM, 48 h exposure, mean of triplicates; read-out: percentage of cell survival over DMSO control, HCT116
Field: class. Source value: viability at 25 µM. Ranges: class 1 (below 50%), class 2 (50% to below 70%), class 3 (70% or more)

Query: Place this compound in its band: Fc1cc(Nc2ncc3ccc4ccccc4c3n2)cc(F)c1F
Result: class 2

Query: Place this compound in its band: Fc1cc(Cl)cc(Nc2ncc3ccc4ccccc4c3n2)c1
Result: class 1

Query: Place this compound in its band: Fc1ccc(Nc2ncc3ccc4ccccc4c3n2)cc1
Result: class 3

Query: Place this compound in its band: c1ccc(Nc2ncc3ccc4ccccc4c3n2)cc1 [Compound 4a, N-phenylbenzo[h]quinazolin-2-amine]
Result: class 1

Query: Place this compound in its band: Cc1cc(Nc2ncc3ccc4ccccc4c3n2)ccc1Br
Result: class 3

Query: Place this compound in its band: Fc1ccccc1Nc1ncc2ccc3ccccc3c2n1
Result: class 3

Query: Place this compound in its band: Fc1ccc(Nc2ncc3ccc4ccccc4c3n2)cc1F
Result: class 3

Query: Place this compound in its band: Clc1cc(Br)cc(Nc2ncc3ccc4ccccc4c3n2)c1
Result: class 1

Query: Place this compound in its band: COc1cccc(Nc2ncc3ccc4ccccc4c3n2)c1
Result: class 1

Query: Place this compound in its band: Clc1ccccc1Nc1ncc2ccc3ccccc3c2n1
Result: class 3

Query: Place this compound in its band: COc1ccccc1Nc1ncc2ccc3ccccc3c2n1
Result: class 1

Query: Place this compound in its band: Cc1ccc(Nc2ncc3ccc4ccccc4c3n2)cc1 [Compound 4d, N-(p-tolyl)benzo[h]quinazolin-2-amine]
Result: class 2

Query: Place this compound in its band: Clc1cccc(Nc2ncc3ccc4ccccc4c3n2)c1
Result: class 2

Query: Place this compound in its band: Cc1ccccc1Nc1ncc2ccc3ccccc3c2n1 [Compound 4b, N-(o-tolyl)benzo[h]quinazolin-2-amine]
Result: class 3

Query: Place this compound in its band: Fc1cccc(Nc2ncc3ccc4ccccc4c3n2)c1
Result: class 1

Query: Place this compound in its band: Cc1cccc(Nc2ncc3ccc4ccccc4c3n2)c1 [Compound 4c, N-(m-tolyl)benzo[h]quinazolin-2-amine]
Result: class 2

Query: Place this compound in its band: Brc1cc(Br)cc(Nc2ncc3ccc4ccccc4c3n2)c1
Result: class 1

----------
tested on: Caco-2; experiment: Cytotoxicity primary screen (single dose); type: cell-based; details: single dose 25 μM, 48 h exposure, mean of triplicates
We use 60% as the dividing line for percentage of cell survival over DMSO control, CaCo-2: on or above the line is true (1), below is false (0).

Query: API: above_or_equal(metric=percentage of cell survival over DMSO control, CaCo-2, cutoff=60%) for item Cc1ccccc1Nc1ncc2ccc3ccccc3c2n1 [Compound 4b, N-(o-tolyl)benzo[h]quinazolin-2-amine]
Result: false (0)

Query: API: above_or_equal(metric=percentage of cell survival over DMSO control, CaCo-2, cutoff=60%) for item Clc1ccc(Nc2ncc3ccc4ccccc4c3n2)cc1
Result: true (1)

Query: API: above_or_equal(metric=percentage of cell survival over DMSO control, CaCo-2, cutoff=60%) for item Fc1ccccc1Nc1ncc2ccc3ccccc3c2n1
Result: false (0)

----------
System: MDA231
Assay: Cytotoxicity primary screen (single dose)
Type: cell-based
Conditions: Homo sapiens, MDA-MB-231; single dose 25 μM, 48 h exposure, mean of triplicates; read-out: percentage of cell survival over DMSO control, MDA231
Method: Next, we performed a cytotoxicity screening of the nineteen molecules 4a–s, at 25 μM, investigating seven representative cancer cell lines: hepatocellular carcinoma HuH-7, colorectal adenocarcinoma CaCo-2, breast carcinoma MDA-MB-231 and MDA-MB-468, colorectal carcinoma HCT-116, prostate carcinoma PC3 and breast carcinoma MCF7. […] The toxicity is expressed as the percentage of cell survival (from 100 % to 0 %) over DMSO control after 48 h exposure (mean of triplicates). […]
Assign viability at 25 µM to each entry below.
Report the figure in % without appending any unit label.

Query: Read the entry Fc1ccccc1Nc1ncc2ccc3ccccc3c2n1 and write its reported viability at 25 µM.
Result: 83

Query: Read the entry COc1ccccc1Nc1ncc2ccc3ccccc3c2n1 and write its reported viability at 25 µM.
Result: 40

Query: Read the entry Clc1ccccc1Nc1ncc2ccc3ccccc3c2n1 and write its reported viability at 25 µM.
Result: 91

Query: Read the entry Cc1cc(Nc2ncc3ccc4ccccc4c3n2)ccc1Br and write its reported viability at 25 µM.
Result: 101

Query: Read the entry Fc1cccc(Nc2ncc3ccc4ccccc4c3n2)c1 and write its reported viability at 25 µM.
Result: 49

Query: Read the entry Clc1cccc(Nc2ncc3ccc4ccccc4c3n2)c1 and write its reported viability at 25 µM.
Result: 67

Query: Read the entry c1ccc(Nc2ncc3ccc4ccccc4c3n2)cc1 [Compound 4a, N-phenylbenzo[h]quinazolin-2-amine] and write its reported viability at 25 µM.
Result: 61

Query: Read the entry Brc1cc(Br)cc(Nc2ncc3ccc4ccccc4c3n2)c1 and write its reported viability at 25 µM.
Result: 67

Query: Read the entry Fc1ccc(Nc2ncc3ccc4ccccc4c3n2)cc1F and write its reported viability at 25 µM.
Result: 91

Query: Read the entry Cc1cccc(Nc2ncc3ccc4ccccc4c3n2)c1 [Compound 4c, N-(m-tolyl)benzo[h]quinazolin-2-amine] and write its reported viability at 25 µM.
Result: 81

----------
test system: MCF7; test: Cytotoxicity secondary screen (IC50); assay type: cell-based; details: Homo sapiens, 48 h exposure, mean of triplicates, NE: no effect
OUTCOME MEASURE: IC50 (µM)
Report the figure in µM without appending any unit label.

Query: Read the entry Cc1cccc(Nc2ncc3ccc4ccccc4c3n2)c1 [Compound 4c, N-(m-tolyl)benzo[h]quinazolin-2-amine] and write its reported IC50.
Result: 30

Query: Read the entry Brc1cc(Br)cc(Nc2ncc3ccc4ccccc4c3n2)c1 [Compound 4o] and write its reported IC50.
Result: 21

Query: Read the entry COc1cccc2c1C(=O)c1c(O)c3c(c(O)c1C2=O)C[C@@](O)(C(=O)CO)C[C@@H]3O[C@H]1C[C@H](N)[C@H](O)[C@H](C)O1 [doxorubicin, reference compound] and write its reported IC50.
Result: 0.07

Query: Read the entry Fc1cccc(Nc2ncc3ccc4ccccc4c3n2)c1 [Compound 4i] and write its reported IC50.
Result: 3

----------
Test system: HuH-7
Experiment: Cytotoxicity secondary screen (IC50)
Type: cell-based
Conditions: Homo sapiens, 48 h exposure, mean of triplicates, NE: no effect
Description: Cell culture. Skin normal fibroblastic cells are purchased from Lonza (Basel, Switzerland), HuH-7, Caco-2, MDA-MB-231, HCT-116, PC3, MCF7 and NCI-H727 cancer cell lines were obtained from ATCC (American Type Culture Collection). Cells are grown at 37 °C, 5% CO2 in ATCC recommended media: DMEM for HuH-7, MDA-MB-231, MDA-MB-468 and fibroblast, EMEM for MCF7 and CaCo-2, McCoy’s for HCT-116 and RPMI for PC3 and NCI-H727. […]
pIC50: −log10 of the molar value.
We use 5 as the dividing line for pIC50: on or above the line is condition met, below is condition not met.

Query: API: above_or_equal(metric=pIC50, cutoff=5) for item COc1ccccc1Nc1ncc2ccc3ccccc3c2n1 [Compound 4e]
Result: condition not met

Query: API: above_or_equal(metric=pIC50, cutoff=5) for item Brc1cc(Br)cc(Nc2ncc3ccc4ccccc4c3n2)c1 [Compound 4o]
Result: condition not met

Query: API: above_or_equal(metric=pIC50, cutoff=5) for item COc1cccc2c1C(=O)c1c(O)c3c(c(O)c1C2=O)C[C@@](O)(C(=O)CO)C[C@@H]3O[C@H]1C[C@H](N)[C@H](O)[C@H](C)O1 [doxorubicin, reference compound]
Result: condition met

Query: API: above_or_equal(metric=pIC50, cutoff=5) for item Cc1cccc(Nc2ncc3ccc4ccccc4c3n2)c1 [Compound 4c, N-(m-tolyl)benzo[h]quinazolin-2-amine]
Result: condition not met

Query: API: above_or_equal(metric=pIC50, cutoff=5) for item Cc1ccccc1Nc1ncc2ccc3ccccc3c2n1 [Compound 4b, N-(o-tolyl)benzo[h]quinazolin-2-amine]
Result: condition not met

Query: API: above_or_equal(metric=pIC50, cutoff=5) for item Clc1cccc(Nc2ncc3ccc4ccccc4c3n2)c1 [Compound 4l]
Result: condition not met

Query: API: above_or_equal(metric=pIC50, cutoff=5) for item c1ccc(Nc2ncc3ccc4ccccc4c3n2)cc1 [Compound 4a, N-phenylbenzo[h]quinazolin-2-amine]
Result: condition met

Query: API: above_or_equal(metric=pIC50, cutoff=5) for item Cc1ccc(Nc2ncc3ccc4ccccc4c3n2)cc1 [Compound 4d, N-(p-tolyl)benzo[h]quinazolin-2-amine]
Result: condition not met

Query: API: above_or_equal(metric=pIC50, cutoff=5) for item Fc1ccccc1Nc1ncc2ccc3ccccc3c2n1 [Compound 4h]
Result: condition not met

Query: API: above_or_equal(metric=pIC50, cutoff=5) for item Fc1cccc(Nc2ncc3ccc4ccccc4c3n2)c1 [Compound 4i]
Result: condition not met

Query: API: above_or_equal(metric=pIC50, cutoff=5) for item Clc1ccccc1Nc1ncc2ccc3ccccc3c2n1 [Compound 4k]
Result: condition not met

Query: API: above_or_equal(metric=pIC50, cutoff=5) for item Clc1cc(Br)cc(Nc2ncc3ccc4ccccc4c3n2)c1 [Compound 4q]
Result: condition not met

Query: API: above_or_equal(metric=pIC50, cutoff=5) for item COc1cccc(Nc2ncc3ccc4ccccc4c3n2)c1 [Compound 4f]
Result: condition not met

Query: API: above_or_equal(metric=pIC50, cutoff=5) for item CC(=O)O[C@H]1C(=O)[C@@]2(C)[C@H]([C@H](OC(=O)c3ccccc3)[C@]3(O)C[C@H](OC(=O)[C@H](O)[C@@H](NC(=O)c4ccccc4)c4ccccc4)C(C)=C1C3(C)C)[C@]1(OC(C)=O)CO[C@@H]1C[C@@H]2O [Taxol, reference compound]
Result: condition met
